The measured values listed here are drawn from paper PMC6858373.

# Test system: Clone V cells
# study conditions: human, 16 h, 30 µM
Structures can show the parent of a compound that is named as a salt.
Catalogue of Toxicity Assay % Fluor values
quantity measured: Toxicity Assay % Fluor (%)

molecule | measured result
COc1cccc2c1C(=O)c1c(O)c3c(c(O)c1C2=O)C[C@@](O)(C(=O)CO)C[C@@H]3O[C@H]1C[C@H](N)[C@@H](O)[C@H](C)O1 [Epirubicin hydrochloride] | 86.21
CN1CCN(c2ccc3nc(-c4c(N)c5c(F)cccc5[nH]c4=O)[nH]c3c2)CC1 | 81.15
O=C(c1ccc(OCCN2CCCCC2)cc1)c1c(-c2ccc(O)cc2)sc2cc(O)ccc12 | 90.90
C=C(c1ccc(C(=O)O)cc1)c1cc2c(cc1C)C(C)(C)CCC2(C)C | 86.80

###

# study target: full-length P. pyralis luciferase (Photinus pyralis, UniProt P08659, K549A/L550V/N119G/N50D/S548I)
# Sequence (P08659 whole entry N50D/N119G/S548I/K549A/L550V, looked up): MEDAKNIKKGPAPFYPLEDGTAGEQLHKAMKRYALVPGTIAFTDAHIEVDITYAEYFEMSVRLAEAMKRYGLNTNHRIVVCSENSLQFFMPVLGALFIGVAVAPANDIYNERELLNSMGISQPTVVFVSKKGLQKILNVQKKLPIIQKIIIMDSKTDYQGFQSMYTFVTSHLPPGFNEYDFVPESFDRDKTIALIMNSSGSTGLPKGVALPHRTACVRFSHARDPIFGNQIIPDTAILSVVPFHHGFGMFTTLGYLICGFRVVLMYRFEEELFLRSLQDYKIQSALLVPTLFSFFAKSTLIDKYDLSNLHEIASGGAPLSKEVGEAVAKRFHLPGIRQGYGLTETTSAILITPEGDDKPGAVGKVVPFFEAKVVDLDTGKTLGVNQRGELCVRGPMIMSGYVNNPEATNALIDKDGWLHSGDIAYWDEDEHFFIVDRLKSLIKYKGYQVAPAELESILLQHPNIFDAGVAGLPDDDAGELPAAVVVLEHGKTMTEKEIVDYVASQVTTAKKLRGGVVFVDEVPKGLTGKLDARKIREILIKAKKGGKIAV
# Format: cell-based
Counter-ions that a name gives are not always drawn.
quantity measured: Luciferase Assay % Lum (full-length luciferase counter-screen) (%)

compound | measured result
CC/C(=C(\c1ccccc1)c1ccc(OCCN(C)C)cc1)c1ccccc1 [Tamoxifen citrate] | 59.05
CCCCC(=O)OCC(=O)[C@]1(O)Cc2c(O)c3c(c(O)c2[C@@H](O[C@H]2C[C@H](NC(=O)C(F)(F)F)[C@H](O)[C@H](C)O2)C1)C(=O)c1c(OC)cccc1C3=O | 92.36
CS(=O)(=O)CCNCc1ccc(-c2ccc3ncnc(Nc4ccc(OCc5cccc(F)c5)c(Cl)c4)c3c2)o1 | 75.39
CNNCc1ccc(C(=O)NC(C)C)cc1 [Procarbazine hydrochloride] | 99.34
C1CN1c1nc(N2CC2)nc(N2CC2)n1 | 108.47
C[C@@H](CN1CC(=O)NC(=O)C1)N1CC(=O)NC(=O)C1 | 109.07
CC(=O)O[C@]1(C(C)=O)CC[C@H]2[C@@H]3C=C(C)C4=CC(=O)CC[C@]4(C)[C@H]3CC[C@@]21C [Megestrol acetate] | 99.64
CN(C)/N=N/c1[nH]cnc1C(N)=O | 99.29
CN(C)c1nc(N(C)C)nc(N(C)C)n1 | 97.84

###

# System: Clone V cells
# study conditions: human, 16 h, 30 µM
Structures can show the parent of a compound that is named as a salt.
Classes by Toxicity Assay Z-score: bin A (below -1), bin B (-1 to below -0.8), bin C (-0.8 or more)

molecule | assigned label
CS(=O)(=O)c1ccc(C(=O)Nc2ccc(Cl)c(-c3ccccn3)c2)c(Cl)c1 [Vismodegib, reference compound] | bin B
COC(=O)C[C@](O)(CCCC(C)(C)O)C(=O)O[C@@H]1C(OC)=C[C@]23CCCN2CCc2cc4c(cc2[C@H]13)OCO4 [Omacetaxine mepesuccinate] | bin B
CS(=O)(=O)CCNCc1ccc(-c2ccc3ncnc(Nc4ccc(OCc5cccc(F)c5)c(Cl)c4)c3c2)o1 | bin A
CNCc1ccc(-c2[nH]c3cc(F)cc4c3c2CCNC4=O)cc1 | bin C
OC[C@H]1O[C@@H](n2cnc3c2NC=NC[C@H]3O)C[C@@H]1O | bin A
O=C1c2c(O)ccc(O)c2C(=O)c2c(NCCNCCO)ccc(NCCNCCO)c21 | bin A
O=C(/C=C/c1cccc(S(=O)(=O)Nc2ccccc2)c1)NO | bin C
Oc1ncnc2[nH]ncc12 | bin A
CCCS(=O)(=O)Nc1ccc(F)c(C(=O)c2c[nH]c3ncc(Cl)cc23)c1F [PLX4720, reference compound] | bin B
Oc1ccc(-c2nc(-c3ccncc3)c(-c3ccc(F)cc3)[nH]2)cc1 | bin C
COc1cc2nccc(Oc3ccc(NC(=O)C4(C(=O)Nc5ccc(F)cc5)CC4)cc3)c2cc1OC [Cabozantinib] | bin B
C#Cc1cccc(Nc2ncnc3cc(OCCOC)c(OCCOC)cc23)c1 [Erlotinib hydrochloride] | bin B
CO[C@H]1C[C@@H]2CC[C@@H](C)[C@@](O)(O2)C(=O)C(=O)N2CCCC[C@H]2C(=O)O[C@H]([C@H](C)C[C@@H]2CC[C@@H](OC(=O)C(C)(CO)CO)[C@H](OC)C2)CC(=O)[C@H](C)/C=C(\C)[C@@H](O)[C@@H](OC)C(=O)[C@H](C)C[C@H](C)/C=C/C=C/C=C/1C | bin A
C[S+]([O-])c1ccc(-c2nc(-c3ccncc3)c(-c3ccc(F)cc3)[nH]2)cc1 (stereo not shown) [SB 203580, reference compound] | bin C
CN(C)S(=O)(=O)c1ccc2c(c1)/C(=C/c1cc3c([nH]1)CCCC3)C(=O)N2 | bin C
C=C(c1ccc(C(=O)O)cc1)c1cc2c(cc1C)C(C)(C)CCC2(C)C | bin A
O=C(NOC[C@H](O)CO)c1ccc(F)c(F)c1Nc1ccc(I)cc1F | bin A
COc1nc(N)nc2c1ncn2[C@@H]1O[C@H](CO)[C@@H](O)[C@@H]1O | bin A
NCCCNCCSP(=O)(O)O | bin B
CN(C)CC[C@H](CSc1ccccc1)Nc1ccc(S(=O)(=O)NC(=O)c2ccc(N3CCN(Cc4ccccc4-c4ccc(Cl)cc4)CC3)cc2)cc1[N+](=O)[O-] | bin C
CCC1=C[C@@H]2CN(C1)Cc1c([nH]c3ccccc13)[C@@](C(=O)OC)(c1cc3c(cc1OC)N(C)[C@H]1[C@@](O)(C(=O)OC)[C@H](OC(C)=O)[C@]4(CC)C=CCN5CC[C@]31[C@@H]54)C2 [Vinorelbine tartrate] | bin A
COC(=O)c1ccc2c(c1)NC(=O)/C2=C(\Nc1ccc(N(C)C(=O)CN2CCN(C)CC2)cc1)c1ccccc1 | bin A
CC[C@@H]1C(=O)N(C)c2cnc(Nc3ccc(C(=O)NC4CCN(C)CC4)cc3OC)nc2N1C1CCCC1 [BI 2536, reference compound] | bin C
CNC(=O)c1ccccc1Sc1ccc2c(/C=C/c3ccccn3)n[nH]c2c1 | bin A
